tested on: MS2 coat protein; experiment: apparent KD of MS2 coat protein; designed switch direction (-1 OFF switch, 1 ON switch): 1; higher = weaker reporter binding; settings: input ligand: microRNA oligo, concentration not stated
For each entry below, report its apparent KD of MS2 coat protein value.
One number for each entry, in nM.

{"Sequence chain": "GCGGAACGGGCCGACAUGAGGAUCACCCAUGUGGCCUCAUGUAAGGAUAUCGGGAAGAAGAAAACCGAGAAGGUACGGUGACGC [AK SSNG3-V2-31] (Eterna round: R96, puzzle: Same State NG 3)", "apparent KD of MS2 coat protein (nM)": 15.6}
{"Sequence chain": "AGGGAGGAUGCAGGAUAUAUAAGACAUGAGGAUCACCCAUGUACCUCGUGGAGAAGAAAGGAGAGAUAGAAGGGUAGUGAGGAA [Default title] (Eterna round: R96, puzzle: Same State NG 2)", "apparent KD of MS2 coat protein (nM)": 200}

In plain terms, GUGGUCAGACAUGAGGAUCACCCAUGUGGAAUAAAUAAGGGUCAGGAUAUGGAAUAUAGGAUAUACCAGAAGGGAUGGUUGGUG (Eterna round: R96, puzzle: Same State NG 3) has a documented apparent KD of MS2 coat protein of 70.2
